tested on: VPS34; construct: gene PIK3C3; conditions: concentration: 1 μM, replicates: in singlicate; n = 1;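 also: KINOMEscan kinase panel screen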
attribute_measured: %Inh (%)

>>> print(df.to_string())
                            smiles_notation  scale_unit  readout_number
0  Cc1cc(N2CCC(NS(=O)(=O)c3ccc(F)cc3)CC2)nc(Nc2cccc(C#N)c2)n1.O=C(O)C(F)(F)F           %               0
1  C[C@@H]1CCN(C(=O)CO)C[C@@H]1N(C)c1ncnc2[nH]ccc12           %               0
2  CCc1nc(-c2cccc(C)c2)c(-c2ccnc(NC(=O)c3ccccc3)c2)s1           %              14
3  CSc1nn2c(=O)cc(N3CCOCC3)nc2n1Cc1cccc(Cl)c1Cl           %            97.1
4                CCn1c(-c2ccncc2)nc2cnccc21           %              25
5  COC(=O)c1c(-c2ccccc2)c2cc(Cl)ccc2c(=O)n1Cc1ccc(S(C)(=O)=O)cc1           %               0
6  FC(F)(F)c1ccc(-c2nn3ncccc3c2-c2ccnc(Nc3cccc(C(F)(F)F)c3)n2)cc1           %               8
7  Cl.Cn1ccc(-c2cccc(Nc3ccnc4cc(-c5nccs5)ccc34)c2)n1           %               0
8  FC(F)(F)c1ccc(-c2cc(-c3c[nH]nc3-c3ccccn3)ccn2)cc1           %               0

====

system: JAK1(JH2domain-pseudokinase); conditions: concentration: 1 μM, replicates: in singlicate; n = 1
attribute_measured: %Inh (%)

>>> df
                                    compound  scale_unit  readout_number
 0  Cl.c1ccc(Cn2ncc3cc(Nc4ncnc5ccccc45)ccc32)cc1           %               0
 1  FC(F)(F)c1ccc(-c2nn3ncccc3c2-c2ccnc(Nc3cccc(C(F)(F)F)c3)n2)cc1           %               5
 2  N#Cc1ccc(Oc2ccc(Nc3ncnc4cc[nH]c34)cc2Cl)cc1           %              25
 3  Fc1cccc(COc2ccc(Nc3ncnc4cc[nH]c34)cc2Cl)c1           %              36
 4               CCC(CC)(CC)n1cnc2c(N)ncnc21           %               0
 5  Cn1ccc2ncnc(Oc3ccc(NC(=O)Nc4cccnc4)c(Cl)c3)c21           %               4
 6  COc1ccc(Nc2nccc(N3CCC(NC(=O)Nc4ccc5c(c4)OCO5)C3)n2)cc1 (centres unmarked)           %               0
 7    Clc1cccc(-c2nc(Nc3ccncc3)c3ccccc3n2)c1           %              16
 8   Clc1cc(Nc2ncnc3cc[nH]c23)ccc1OCc1ccccn1           %              35
 9  CN1CCC(n2cnc(-c3ccc(F)cc3)c2-c2ccnc(NC3CCNCC3)n2)CC1           %               0
10  COc1ccc(NC(=O)Nc2ccc(C)c(-c3ccc(C(=O)Nc4ccncc4)cc3)c2)cc1           %               0
11  CSc1nn2c(=O)cc(N3CCOCC3)nc2n1Cc1cccc(Cl)c1Cl           %               0
12  Nc1nccc2scc(-c3ccc4c(c3)CCN4C(=O)Cc3cc(F)ccc3F)c12           %               0
13  Cl.Cn1ccc(-c2cccc(Nc3ccnc4cc(-c5nccs5)ccc34)c2)n1           %               0
14  Fc1cccc(COc2ccc(Nc3ncnc4nn5ccccc5c34)cc2Cl)c1           %               0
15  COc1ccc(-c2oc3ncnc(N)c3c2-c2ccc(OC)cc2)cc1           %              31
16  NC(=O)c1sc(-n2cnc3ccccc32)cc1OCc1ccccc1F           %               0
17  FC(F)(F)c1ccc(-c2cc(-c3c[nH]nc3-c3ccccn3)ccn2)cc1           %               0
18                CCn1c(-c2ccncc2)nc2cnccc21           %              12
19  Cc1ccc(NC(=O)c2cccc(C#N)c2)cc1-c1ccc(C(=O)Nc2ccncc2)cc1           %               6
20  COc1cc2c(Nc3cccc(NC(=O)c4ccccc4)c3)ncnc2cc1OCCCN1CCOCC1           %               0
21  Cn1cc(-c2ccc3c(c2)CCN3C(=O)Cc2cccc(C(F)(F)F)c2)c2c(N)ncnc21           %               0
22  CCc1nc(-c2cccc(N(C)S(=O)(=O)c3ccccc3)c2)c(-c2ccnc(Nc3ccc(N4CCN(C(C)=O)CC4)nc3)n2)s1           %              21
23      Nc1nc(-c2ccccn2)c(-c2ccnc3ccccc23)s1           %               5
24  Fc1ccc(-c2ncn(CCCNCc3ccccc3)c2-c2ccncc2)cc1           %              24
25  CCc1nc(-c2cccc(C)c2)c(-c2ccnc(NC(=O)c3ccccc3)c2)s1           %               3
26  FC(F)(F)c1cc(Nc2nccc(-c3c(-c4ccc(Cl)cc4)nn4ncccc34)n2)ccc1Cl           %               0
27       CC(C)(C)c1ccc(-n2cnc3c(N)ncnc32)cc1           %              82
28  COC(=O)c1c(-c2ccccc2)c2cc(Cl)ccc2c(=O)n1Cc1ccc(S(C)(=O)=O)cc1           %               0

====

system: SIK2; conditions: concentration: 1 μM, replicates: in singlicate; n = 1
attribute_measured: %Inh (%)

In [3]: df
Out[3]:
                                   compound  readout_number
0  FC(F)(F)c1cc(Nc2nccc(-c3c(-c4ccc(Cl)cc4)nn4ncccc34)n2)ccc1Cl [GW829351]               0
1  CSc1ccc(NC2=C(c3ccccc3Cl)C(=O)NC2=O)cc1 [SB-342411]               5
2  Fc1ccc(Nc2nccc(-c3c(-c4ccc(Cl)cc4)nn4ncccc34)n2)cc1F [GW829058]               0
3  Cn1ccc2ncnc(Nc3ccc(Oc4cccc(Cl)c4)c(Cl)c3)c21               0
4  N#Cc1ccc(Oc2ccc(Nc3ncnc4cc[nH]c34)cc2Cl)cc1              37

====

Below, each entry is listed alongside its reported %Inh.
test system: p38-alpha; construct: gene MAPK14; details: concentration: 1 μM, replicates: in singlicate; n = 1
attribute_measured: %Inh (%)

                                   molecule     system  scale_unit  readout_number
0  CSc1ccc(NC2=C(c3ccccc3Cl)C(=O)NC2=O)cc1 [SB-342411]  p38-alpha           %               0
1  CC(C)(C)c1ccc(-n2cnc3c(N)ncnc32)cc1 [SKF-97263]  p38-alpha           %               0
2  CN1CCC(n2cnc(-c3ccc(F)cc3)c2-c2ccnc(NC3CCNCC3)n2)CC1 [SB-229482]  p38-alpha           %              89
3  Nc1nc(-c2cccnc2)c(-c2ccnc3ccccc23)s1 [GW684083]  p38-alpha           %              40

====

Known %Inh of a selection of compounds
test system: SGK; details: concentration: 1 μM, replicates: in singlicate; n = 1
attribute_measured: %Inh (%)

>>> print(df.to_string())
                            smiles_notation  system  readout_number
0  CN1c2ccc(-c3ccc(C(=O)NCCO)cc3)cc2-c2[nH]ncc2S1(=O)=O     SGK              10
1  Cn1ccc2ncnc(Oc3ccc(NC(=O)Nc4cccnc4)c(Cl)c3)c21     SGK               3
2  Cc1ccc(NC(=O)c2cccc(C#N)c2)cc1-c1ccc(C(=O)Nc2ccncc2)cc1     SGK               0
3                CCn1c(-c2ccncc2)nc2cnccc21     SGK               5
4        CC(=O)Nc1n[nH]c2ncc(-c3ccccc3)cc12     SGK              20
5  CN1CCC(n2cnc(-c3ccc(F)cc3)c2-c2ccnc(NC3CCNCC3)n2)CC1     SGK               0
6  CNc1nccc(-c2c(-c3ccc(F)cc3)ncn2C2CCN(C)CC2)n1     SGK               0
7  COc1cc2c(Nc3cccc(NC(=O)c4ccccc4)c3)ncnc2cc1OCCCN1CCOCC1     SGK               0
8  O=C(NCCCN1CCCC1=O)c1cnc(NCc2cc(Cl)ccc2Cl)nc1NC1CCNCC1     SGK               0
